Just for reference, the supplement of paper PMC8728848 is where these values come from.

- Target Of Assay: Fuc(a1-2)[GalNAc(a1-4)]Gal(b1-4)GlcNAc
- Protocol Text: glycan array binding signal (z-score within array); higher = stronger binding
- Test Context: glycan notation: IUPAC condensed, linker removed
Shown is part of a subset that was picked to be rich in the strongest signals.
Value Type: glycan array binding signal (z-score)
Could you keep your reply to the number by itself?

Check out these entries, answers already filled in.
INSERT INTO results (binder, reading) VALUES
  ('DC-ASGPR S+GEE (Homo sapiens) (protein) MTRTYENFQYLENKVKVQGFKNGPLPLQSLLQRLRSGPCHLLLSLGLGLLLLVIICVVGFQNSKFQRDLVTLRTDFSNFTSNTVAEIQALTSQGSSLEETIASLKAEVEGFKQERQAVHSEMLLRVQQLVQDLKKLTCQVATINNNGEEASTEGTCCPVNWVEHQDSCYWFSHSGMSWAEAEKYCQLKNAHLVVINSREEQNFVQKYLGSAYTWMGLSDPEGAWKWVDGTDYATGFQNWKPGQPDDWQGHGLGGGEDCAHFHPDGRWNDDVCQRPYHWVCEAGLGQTSQESH', 3.75),
  ('UEA-I (Ulex europaeus), P22972 (protein) SDDLSFKFKNFSQNGKDLSFQGDASVIETGVLQLNKVGNNLPDETGGIARYIAPIHIWNCNTGEVASFITSFSFFMETSANPKAATDGLTFFLAPPDSPLRRAGGYFGLFEDTKDNDSSYQTVAVEFDTIGSPVNFDDPGFPHIGIDVNRVKSINAERWNKRYGLNNVANVEIIYEASSKTLTASLTYPSDQTSISVTSIVDLKEILPEWVSVGFSGGTYIGRQATHEVLNWYFTSNLINTNS', 5.17),
  ('DC-ASGPR Long (Homo sapiens) (protein) MTRTYENFQYLENKVKVQGFKNGPLPLQSLLQRLRSGPCHLLLSLGLGLLLLVIICVVGFQNSKFQRDLVTLRTDFSNFTSNTVAEIQALTSQGSSLEETIASLKAEVEGFKQERQAGVSELQEHTTQKAHLGHCPHCPSVCVPVHSEMLLRVQQLVQDLKKLTCQVATLNNNASTEGTCCPVNWVEHQDSCYWFSHSGMSWAEAEKYCQLKNAHLVVINSREEQNFVQKYLGSAYTWMGLSDPEGAWKWVDGTDYATGFQNWKPGQPDDWQGHGLGGGEDCAHFHPDGGWNDDVCQRPYHWVCEAGLGQTSQESH', 3.67),
  ('HML-Native (Hypnea musciformis), P84871 (protein) QKFCTLDIAPVCCQIVIGGGMYTAGNACMCEGFVSGVGRCENPKECPCTREAQIPSCCSSRWGLVSVTGKCACDCLGGTVAFPEPCPSPY', -0.162);

API: the following record is the query input.
Form field glycan array binding signal (z-score), entry UEA-I (Ulex europaeus), P22972 (protein) SDDLSFKFKNFSQNGKDLSFQGDASVIETGVLQLNKVGNNLPDETGGIARYIAPIHIWNCNTGEVASFITSFSFFMETSANPKAATDGLTFFLAPPDSPLRRAGGYFGLFEDTKDNDSSYQTVAVEFDTIGSPVNFDDPGFPHIGIDVNRVKSINAERWNKRYGLNNVANVEIIYEASSKTLTASLTYPSDQTSISVTSIVDLKEILPEWVSVGFSGGTYIGRQATHEVLNWYFTSNLIN : 4.61
